The values you see were collected from patent US20210284749A1.

Biological target: T1, human BCMA expressed on cell surface (H929, OPM-2, CHOK1-hBCMA cells) (human, UniProt Q02223 1-184)
T1 construct: also called cell-surface BCMA; BCMA on cell surface
T1 sequence: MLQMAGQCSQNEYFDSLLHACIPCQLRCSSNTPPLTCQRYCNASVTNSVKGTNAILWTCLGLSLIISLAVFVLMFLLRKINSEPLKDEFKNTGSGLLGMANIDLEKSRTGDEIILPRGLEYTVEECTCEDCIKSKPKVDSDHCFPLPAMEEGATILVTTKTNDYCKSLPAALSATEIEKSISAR
Assay: FACS on H929 cells
endpoint: MFI

mutant antibody 5D5 LM2 (antibody, V domains shown, Light chain CDR mutant of 5D5 (IgG1); heavy chain as 5D5) VH: EVQLLESGGGLVQPGGSLRLSCAASGFTFSDYGLSWVRQAPGKGLEWVSLIDSSGSSTFYADSVKGRFTISRDNSKNTLYLQMNSLRAEDTAVYYCAKEHGLFDSWGQGTLVTVSS VL: EIVLTQSPGTLSLSPGERATLSCKASQDIDEDINWYQQKPGQAPRLLIYDASLRATGIPDRFSGSGSGTDFTLTISRLEPEDFAVYYCQQSLRTPITFGQGTKLEIKR = 29
